assay_summary: Population PK model of quizartinib
Assay type: in vivo, human
condition_parameters: human, plasma, oral
value_type: clearance (mL/min)
Field: numeric (mL/min). Do not append units.

So what's the measured clearance for this one? `CC(C)(C)c1cc(NC(=O)Nc2ccc(-c3cn4c(n3)sc3cc(OCCN5CCOCC5)ccc34)cc2)no1`
111

* * *

assay_summary: Population PK model of quizartinib
Type: in vivo, human
condition_parameters: human, plasma, oral
value_type: Vd (L)
Field: numeric (L). Do not append units.

So what's the measured Vd for this one? CC(C)(C)c1cc(NC(=O)Nc2ccc(-c3cn4c(n3)sc3cc(OCCN5CCOCC5)ccc34)cc2)no1 [quizartinib]
371
